ASSAY_DETAILS: chemical genetic growth profiling, strain panel (AID 1159580);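 note: tested at 20 µM; growth read once vehicle control cultures reached saturation at 30 °C; 1 = growth at the plate median or of vehicle wells; lower values mean less growth of the strain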
CONDITIONS_USED: S. cerevisiae deletion strains, growth OD, locus YLL001W, strain dnm1
Out of some 5,500 compounds screened, about 2,000 (36%) were called active. Inconclusive results (about 18%) are left out. Cut-off read from the data, not from the text of the source: active = normalized growth mostly below about 0.91 (no sharp cut-off); inconclusive = no clear call, values can overlap the other calls; inactive = mostly above about 0.92. The list shows a part of the results.
Permitted responses: active, inactive

Answered examples (3):
- COc1cccc2c1C(=O)c1c(O)c3c(c(O)c1C2=O)C[C@@](O)(C(=O)CO)C[C@@H]3OC1C[C@H](N)[C@H](O)[C@H](C)O1 (some centres undefined): active
- COC(=O)Nc1nc2ccc(S(=O)c3ccccc3)cc2[nH]1 (centres undefined): inactive
- COC(=O)Nc1nc2ccc(Sc3ccccc3)cc2[nH]1: inactive

Query: What call does the record list for `Cc1ccc(-c2cc(C(F)(F)F)nn2-c2ccc(S(N)(=O)=O)cc2)cc1` ?
Reply: inactive

Query: Please answer likewise for CC1(C)CC(O)C2(C)CCC3(C)C(=CCC4C5(C)CCC(O)C(C)(CO)C5CCC43C)C2C1 (centres undefined)
Reply: inactive

###

ASSAY_DETAILS: chemical genetic growth profiling, strain panel (AID 1159580);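 note: tested at 20 µM; growth read once vehicle control cultures reached saturation at 30 °C; 1 = growth at the plate median or of vehicle wells; lower values mean less growth of the strain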
CONDITIONS_USED: S. cerevisiae deletion strains, growth OD, locus YML120C, strain ndi1, active compounds read low
Screen size: about 5,500 compounds; about 2,000 (36%) were called active. Inconclusive results (about 18%) are left out. This is one part of the list. Where a SMILES comes first, the peptide text is derived from it. Bridges are numbered along the chain shown (N, C = ends). [ ]: non-standard residue; d: D form. The star is where a group is joined. ξ: configuration not given here. ξDab(CH2SO3H) = NC(CCNCS(=O)(=O)O)C(=O)O; Heptanoyl(6-Me) = CC(C)CCCCC(=O)*; Dab = NCC[CH](N)C(=O)O
QUANTITY_KIND: normalized growth
API note: the answer field is a bare number with no unit suffix.

The cases that follow already have their normalized growth on record.
• OC(CCN1CCCC1)(c1ccccc1)C1CCCCC1 (configuration not stated) = 0.972
• CCC(C)C1NC(=O)C(CCNCS(=O)(=O)O)NC(=O)C(NC(=O)C(CCNCS(=O)(=O)O)NC(=O)C(NC(=O)C(CCNCS(=O)(=O)O)NC(=O)CCCCC(C)C)C(C)O)CCNC(=O)C(C(C)O)NC(=O)C(CCNCS(=O)(=O)O)NC(=O)C(CCNCS(=O)(=O)O)NC(=O)C(C(C)CC)NC1=O (configuration not stated) ({Heptanoyl(6-Me)}-[ξDab(CH2SO3H)]T[ξDab(CH2SO3H)][Dab][ξDab(CH2SO3H)]II[ξDab(CH2SO3H)][ξDab(CH2SO3H)]T; lactam 4-C; configuration not given here) = 0.971
• COc1ccc2c3c([nH]c2c1)C(C)=NCC3 = 0.986
• CC(=O)NCc1c(I)c(NC(C)=O)c(I)c(C(=O)O)c1I = 0.994
• CC(C)(C#N)O[C@@H]1O[C@H](CO)[C@@H](O)[C@H](O)[C@H]1O = 0.994
• CCC(C)C(=O)O[C@H]1[C@H](O)C2C(CN3CC(C)CCC3[C@@]2(C)O)C2C[C@]34O[C@]5(O)C(OC(=O)C(C)(O)CC)CC[C@@]3(C)C5C(OC(C)=O)[C@@H](OC(C)=O)C4[C@@]21O (some centres not stated) = 1.01

Query: Which normalized growth reading was recorded for the compound `O=c1oc2cc(O)ccc2s1` ?
Reply: 0.994

Query: Please answer likewise for `NNc1nncc2ccccc12`
Reply: 0.981
